- TEST_TARGET: Endothelial lipase (EL) (Homo sapiens (Human), UniProt Q9Y5X9)
- Sequence (Q9Y5X9 21-500): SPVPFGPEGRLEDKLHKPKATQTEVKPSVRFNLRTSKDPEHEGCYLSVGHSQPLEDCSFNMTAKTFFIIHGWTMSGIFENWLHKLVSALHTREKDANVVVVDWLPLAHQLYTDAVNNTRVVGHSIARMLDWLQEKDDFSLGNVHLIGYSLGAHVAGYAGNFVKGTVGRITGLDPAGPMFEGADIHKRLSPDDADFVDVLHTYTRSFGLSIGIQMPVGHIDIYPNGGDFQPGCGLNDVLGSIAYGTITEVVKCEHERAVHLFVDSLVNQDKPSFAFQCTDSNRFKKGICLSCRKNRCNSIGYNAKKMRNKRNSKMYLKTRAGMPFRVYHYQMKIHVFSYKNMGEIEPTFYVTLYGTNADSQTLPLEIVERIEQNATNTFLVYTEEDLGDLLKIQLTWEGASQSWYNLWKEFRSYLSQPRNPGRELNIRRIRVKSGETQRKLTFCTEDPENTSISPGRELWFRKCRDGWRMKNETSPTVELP
- ASSAY_DETAILS: EL assay: endothelial lipase activity with fluorescent substrate A10070 in DMPG vesicles
- Assay type: biochemical
Reported values of log10 of IC50 for individual entries
Give log10 of IC50, with IC50 taken in nM.

Recorded results for 4 compounds are shown here.
COMPOUND	log10 of IC50
CC1(O)CN(C(=O)c2ccc(-c3ccc4sc(C(C(=O)NCCS(N)(=O)=O)S(C)(=O)=O)nc4c3)cc2)C1 (stereo not shown)	0.68
COCCNC(=O)c1ccc(-c2ccc3nc(C(C(=O)NCc4nnc(C)o4)S(=O)(=O)CCOC)sc3c2)cc1 (stereo not shown)	1.97
Cc1cc2nc(C(C(=O)NCCS(N)(=O)=O)S(=O)(=O)Cc3ccccc3)sc2cc1-c1ccc(C(=O)O)cc1 (stereo not shown)	0.08
NS(=O)(=O)CCNC(=O)C(c1nc2ccc(-c3ccc4c(c3)CNC4=O)cc2s1)S(=O)(=O)Cc1ccc(OC(F)(F)F)cc1 (stereo not shown)	0.40

Now take the following compound into account.
Reported log10 of IC50 for COCCS(=O)(=O)C(C(=O)NCCS(N)(=O)=O)c1nc2ccc(Br)cc2s1 (stereo not shown) was 1.41
